Recorded values, source ChEMBL document CHEMBL1154658.

- assaySummary: Cmax in Sprague-Dawley rat at 10 mg/kg, po
- Type: ADME, organism-based
- Design: dose 10 mg/kg, route oral
- assayContext: in vivo
measuredEndpoint: Cmax (µM)

- C=C[C@@H]1C[C@]1(NC(=O)[C@@H]1C[C@@H]2CN1C(=O)[C@H]([C@@H](C)CC)Nc1nc(cs1)CCC/C=C/c1cccc3c1CN(C3)C(=O)O2)C(=O)[N-]S(=O)(=O)C1CC1.[K+]: 1.4

----------
- assaySummary: Inhibition of HCV NS3/4A protease
- Parameters: species or system Hepacivirus hominis
measuredEndpoint: Ki

• C=C[C@@H]1C[C@]1(NC(=O)[C@@H]1C[C@@H]2CN1C(=O)[C@H]([C@@H](C)CC)Nc1nc(cs1)CCC/C=C/c1cccc3c1CN(C3)C(=O)O2)C(=O)NS(=O)(=O)C1CC1.O=C(O)C(F)(F)F = 4 nM

----------
# log10(concentration at 4 h) per record follows
- assaySummary: Drug level in Sprague-Dawley rat liver at 5 mg/kg, po after 4 hrs
- Assay type: ADME, organism-based
- Design: dose 5 mg/kg, route oral
- assayContext: read-out: Drug uptake
measuredEndpoint: log10(concentration at 4 h) (log10 of the value in nM)

- C=C[C@@H]1C[C@]1(NC(=O)[C@@H]1C[C@@H]2CN1C(=O)[C@H](C(C)(C)C)Nc1nc(cs1)CCCCc1ccc3ccnc(c3c1)O2)C(=O)NS(=O)(=O)C1CC1.O=C(O)C(F)(F)F: 3.00
- C=C[C@@H]1C[C@]1(NC(=O)[C@@H]1C[C@@H]2CN1C(=O)[C@H](C1CCCCC1)Nc1nc(cs1)CCCCc1ccc3ccnc(c3c1)O2)C(=O)NS(=O)(=O)C1CC1.O=C(O)C(F)(F)F: 3.53
- C=C[C@@H]1C[C@]1(NC(=O)[C@@H]1C[C@@H]2CN1C(=O)[C@H](C(C)(C)C)NC(=O)OCCCCCc1ccc3ccnc(c3c1)O2)C(=O)NS(=O)(=O)C1CC1: 4.13
- C=C[C@@H]1C[C@]1(NC(=O)[C@@H]1C[C@@H]2CN1C(=O)[C@H](C(C)C)Nc1nc(cs1)C(C)(C)CCCc1ccc3ccnc(c3c1)O2)C(=O)NS(=O)(=O)C1CC1.O=C(O)C(F)(F)F: 3.56
- C=C[C@@H]1C[C@]1(NC(=O)[C@@H]1C[C@@H]2CN1C(=O)[C@H](C(C)C)Nc1nc(cs1)CC/C=C/c1ccc3ccnc(c3c1)O2)C(=O)NS(=O)(=O)C1CC1.O=C(O)C(F)(F)F: 3.38
- C=C[C@@H]1C[C@]1(NC(=O)[C@@H]1C[C@@H]2CN1C(=O)[C@H](C(C)C)Nc1nc(cs1)CCCCc1ccc3ccnc(c3c1)O2)C(=O)NS(=O)(=O)C1CC1.O=C(O)C(F)(F)F: 3.74
- C=C[C@@H]1C[C@]1(NC(=O)[C@@H]1C[C@@H]2CN1C(=O)[C@H](C(C)(C)C)Nc1nc(cs1)CCCCCc1cccc3c1CN(C3)C(=O)O2)C(=O)NS(=O)(=O)C1CC1.O=C(O)C(F)(F)F: 1.78
- C=C[C@@H]1C[C@]1(NC(=O)[C@@H]1C[C@@H]2CN1C(=O)[C@H](C(C)C)NC1=NN=C(CCCCc3ccc4ccnc(c4c3)O2)O1)C(=O)NS(=O)(=O)C1CC1: 1.48
- C=C[C@@H]1C[C@]1(NC(=O)[C@@H]1C[C@@H]2CN1C(=O)[C@H](C(C)C)Nc1nc(cs1)CCC/C=C/c1cccc3c1CN(C3)C(=O)O2)C(=O)NS(=O)(=O)C1CC1.O=C(O)C(F)(F)F: 2.78
